- protocol-notes: growth inhibition of non-replicating M. tuberculosis (AID 488890);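 further: plate controls were DMSO cells for no effect and high antibiotic wells for full effect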
- run-parameters: Mycobacterium tuberculosis non-replicating, at 25 µM, stronger effect = higher value
The whole screen tested about 320,000 compounds, of which about 1,300 (0.41%) were called active. Not shown: some 3% with an inconclusive outcome. The list is a sample of the results. Measured potencies and affinities stand elsewhere.
Catalogue of molecules with associated inhibition
parameter-measured: inhibition (%)

> print(dat)
                                    molecule  display.unit  result
 1  CCOC(=O)c1cccc(NC(=O)COc2ccc([N+](=O)[O-])cc2)c1             %    73.8
 2  COc1ccc(CCNC(=O)c2cccc(S(=O)(=O)N3CCOCC3)c2)cc1OC             %      16
 3  COc1ccc(C(=O)NCC(C)NC(=O)c2ccc(OC)c(Br)c2)cc1Br (centres undefined)             %   -0.81
 4        Cc1ccccc1OCc1n[nH]c(=S)n1-c1ccccc1             %    -9.9
 5  COc1nc(OC)nc(Oc2ccc(Cl)cc2[N+](=O)[O-])n1             %    2.78
 6                    COCCOc1cc(N)c(Cl)cc1Cl             %    10.4
 7             CNC(=O)CO/N=C/c1ccc(N(C)C)cc1             %     3.3
 8  CCOc1ccc(CCNC(=O)CCn2nc(C)c3c(C)n(-c4ccccc4)nc3c2=O)cc1             %   -11.8
 9              Nc1ccc(-c2nc3ncccc3o2)c(O)c1             %    8.78
10  COc1ccc(OCCNc2cc(Cl)ccc2[N+](=O)[O-])cc1             %   -1.86
11          CC(=O)c1cccc(NC(=O)COc2ccccc2)c1             %    54.2
12                  COCCCNC(=O)Nc1ccc(F)cc1F             %   -3.58
13  CCOc1ccc(C(O)C(CN2CCOCC2)c2ccccc2)cc1 (centres undefined)             %   -1.32
14  C[C@H](NC(=O)[C@@H]1Cc2ccccc2CN1C(=O)OC(C)(C)C)C(=O)NCC1CCCO1 (some centres undefined)             %     6.8
15  CC(C)(C)NC(=O)Cn1cc(C(=O)c2ccccc2F)c2ccccc21             %    0.38
16      CC(=O)Nc1cccc(OCC(=O)Nc2ccc(F)cc2)c1             %   -6.82
17  CC(CN1CCCC1)OC(=O)C(c1ccccc1)c1ccccc1 (centres undefined)             %    10.8
18  COc1ccc(C(=O)c2c3ccc(OC)cc3[n+]([O-])n2Cc2ccc(C(N)=O)cc2)cc1             %    17.1
19  N/C(=N\N=C\c1cccs1)SC1CC(=O)N(c2ccc(Br)cc2)C1=O (centres undefined)             %    7.06
20  CCOC(=O)COc1cc(N2C(=O)CSCC2=O)c(Cl)cc1Cl             %   -8.36
21  Cc1cccc(N2CCN(C(=O)c3cc(=O)[nH]c4ccccc34)CC2)c1C             %    24.4
22  COc1ccc(OC(C)C(=O)NC(C)c2ccccc2)cc1 (centres undefined)             %   -7.62
23  O=C(NCc1ccco1)[C@@H]1CSC2c3ccccc3C(=O)N21 (some centres undefined)             %    -2.9
24    Cc1nnc(NC(=O)c2ccccc2NC(=O)c2ccccc2)s1             %    33.7

Where do the numbers come from? From PubChem BioAssay AID488890.
